MEASURED_ON: Rat brain protein farnesyltransferase (Rattus norvegicus, UniProt Q02293+Q04631)
Construct: Rat brain protein farnesyltransferase activity is measured; from tissue; host or cells: rat brain
Sequence (Q02293 whole entry, one chain of several): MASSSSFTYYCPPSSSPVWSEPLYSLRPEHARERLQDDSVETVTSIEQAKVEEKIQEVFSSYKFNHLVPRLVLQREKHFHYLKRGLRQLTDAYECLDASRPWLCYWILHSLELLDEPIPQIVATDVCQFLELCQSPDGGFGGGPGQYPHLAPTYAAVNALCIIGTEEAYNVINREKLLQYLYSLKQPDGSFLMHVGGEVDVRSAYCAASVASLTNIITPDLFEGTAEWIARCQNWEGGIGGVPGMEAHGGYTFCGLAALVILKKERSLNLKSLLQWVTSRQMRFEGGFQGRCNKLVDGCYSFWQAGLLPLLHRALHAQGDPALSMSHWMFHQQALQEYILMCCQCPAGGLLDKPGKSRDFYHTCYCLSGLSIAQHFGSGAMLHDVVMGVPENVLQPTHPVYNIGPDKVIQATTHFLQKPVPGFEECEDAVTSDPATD
TEST_DETAILS: % inhibition of farnesylation, scintillation proximity assay with biotin-K Ras B fragment
Format: biochemical
MEASUREMENT_CONDITIONS: read-out: % inhibition at 1 × 10^-7 M
Structures can show the parent of a compound that is named as a salt.
ENDPOINT: inhibition at 0.1 µM (%)
// return numeric value only (unit: %, not printed)

MOLECULE	ENDPOINT	NUMERIC_READOUT
CSCC[C@H](NC(=O)c1ccc(COCc2cnc(-c3cccc(Cl)c3)o2)cc1-c1ccccc1C)C(=O)O [Example 893, lithium salt]	inhibition at 0.1 µM	87
CSCC[C@H](NC(=O)c1ccc(COCc2ccc(-c3ccc(C(C)=O)cc3)o2)cc1-c1ccccc1C)C(=O)O [Example 449, lithium salt]	inhibition at 0.1 µM	91
CSCC[C@H](NC(=O)c1ccc(COCCc2ccc(-c3ccc(Cl)cc3)o2)cc1-c1ccccc1C)C(=O)O [Example 536, lithium salt]	inhibition at 0.1 µM	79
CSCC[C@H](NC(=O)c1ccc(COCCc2ccc(-c3ccc(F)cc3)o2)cc1-c1ccccc1C)C(=O)O [Example 535, lithium salt]	inhibition at 0.1 µM	89
CSCC[C@@H](C(=O)O)N(C)C(=O)c1ccc(COCCCC2CCCCC2)cc1-c1ccccc1C [Example 597, lithium salt]	inhibition at 0.1 µM	75

Q: GET inhibition at 0.1 µM where system = Rat brain protein farnesyltransferase (Rattus norvegicus, UniProt Q02293+Q04631) and item = CSCC[C@H](NC(=O)c1ccc(COCc2ccc(-c3cccc(C(F)(F)F)c3)o2)cc1-c1ccccc1C)C(=O)O [Example 441, lithium salt]
Ans: 91

====

MEASURED_ON: Rat brain protein farnesyltransferase (Rattus norvegicus, UniProt Q02293+Q04631)
Construct: Rat brain protein farnesyltransferase activity is measured; from tissue; host or cells: rat brain
TEST_DETAILS: % inhibition of farnesylation, scintillation proximity assay with biotin-K Ras B fragment
Type: biochemical
MEASUREMENT_CONDITIONS: read-out: % inhibition at 1 × 10^-7 M
Counter-ions that a name gives are not always drawn.
Listed here: items and their measured inhibition at 0.1 µM.
Quick reminder: number only, in %, skip the unit.

Q: Specify measured inhibition at 0.1 µM for CSCC[C@H](NC(=O)c1ccc(COCc2ccc(-c3ccccc3C(F)(F)F)o2)cc1-c1ccccc1C)C(=O)O [Example 438, lithium salt] .
Ans: 90

Q: Note inhibition at 0.1 µM for the compound shown: CSCC[C@H](NC(=O)c1ccc(COCc2ccc(-c3ccc(C=O)cc3)o2)cc1-c1ccccc1C)C(=O)O [Example 448, lithium salt]
Ans: 92

Q: Return value of inhibition at 0.1 µM for input CSCC[C@H](NC(=O)c1ccc(CSCCc2ccccc2)cc1-c1ccccc1C)C(=O)O [Example 562, lithium salt] , no commentary.
Ans: 95

Q: Give the reported value of inhibition at 0.1 µM for this record: CSCC[C@H](NC(=O)c1ccc(COCc2ccc(-c3cccc(F)c3)o2)cc1-c1ccccc1C)C(=O)O [Example 436, lithium salt]
Ans: 89

Q: Quote inhibition at 0.1 µM reported for CSCC[C@H](NC(=O)c1ccc(COC(Cc2ccccc2)Cc2ccccc2)cc1-c1ccccc1C)C(=O)O [Example 522, lithium salt] please.
Ans: 93

Q: Look up and report measured inhibition at 0.1 µM for this entry: CSCC[C@H](NC(=O)c1ccc(COCc2ccc(-c3ccccc3F)o2)cc1-c1ccccc1C)C(=O)O [Example 437, lithium salt]
Ans: 89

Q: Retrieve inhibition at 0.1 µM measured for CSCC[C@H](NC(=O)c1ccc(COCc2cccc3ccccc23)cc1-c1ccccc1C)C(=O)O [Example 584, lithium salt] and print it.
Ans: 96

Q: Identify measured inhibition at 0.1 µM corresponding to CSCC[C@H](NC(=O)c1ccc(COCCc2ccc(Cl)cc2)cc1-c1ccccc1C)C(=O)O [Example 590, lithium salt]
Ans: 95

Q: Give inhibition at 0.1 µM for CSCC[C@H](NC(=O)c1ccc(CSCC2CCCCC2)cc1-c1ccccc1C)C(=O)O [Example 559, lithium salt]
Ans: 96

Q: Entry CSCC[C@H](NC(=O)c1ccc(COCCC2CCCCC2)cc1-c1ccccc1C)C(=O)O [Example 594, lithium salt] needs its inhibition at 0.1 µM filled in; supply it.
Ans: 95

Q: Kindly indicate its recorded inhibition at 0.1 µM. Item: CSCC[C@H](NC(=O)c1ccc(COC2CCC(NC(=O)OC(C)(C)C)CC2)cc1-c1ccccc1C)C(=O)O (some centres unmarked) [Example 817, lithium salt]
Ans: 60

====

Catalogue of % inhibition at 1 × 10^-5 M values
MEASURED_ON: Rat brain protein farnesyltransferase (Rattus norvegicus, UniProt Q02293+Q04631)
Construct: Rat brain protein farnesyltransferase activity is measured; from tissue; host or cells: rat brain
TEST_DETAILS: % inhibition of farnesylation, scintillation proximity assay with biotin-K Ras B fragment
Type: biochemical
MEASUREMENT_CONDITIONS: Table 1; 1 × 10^-5 M
Respond with a number, then the unit of measure.

Recorded results for 8 compounds are shown here.
COMPOUND	% inhibition at 1 × 10^-5 M
COc1cc(Cl)ccc1C(=O)Nc1ccc(C(=O)N[C@@H](CCSC)C(=O)O)c(-c2ccccc2)c1 [Example 753]	55%
CSCC[C@H](NC(=O)c1ccc(CNc2cc(C(=O)O)cc(C(=O)O)c2)cc1-c1ccccc1)C(=O)O [Example 710]	45%
CSCC[C@H](NC(=O)c1ccc(NC(=O)CCN)cc1-c1ccccc1)C(=O)O [Example 750]	44%
CSCC[C@H](NC(=O)c1ccc(CNCC(C)(C)CN(C)C)cc1-c1ccccc1)C(=O)O [Example 639]	44%
CSCC[C@H](NC(=O)c1ccc(CNCCCN2CCOCC2)cc1-c1ccccc1)C(=O)O [Example 377]	71%
CSCC[C@H](NC(=O)c1ccc(CNc2cc(C(C)(C)C)[nH]n2)cc1-c1ccccc1)C(=O)O [Example 381]	79%
CCn1cc(NCc2ccc(C(=O)N[C@@H](CCSC)C(=O)O)c(-c3ccccc3)c2)c(=O)n1CC [Example 364]	69%
CSCC[C@H](NC(=O)c1ccc(CNc2cccc(OC(F)(F)F)c2)cc1-c1ccccc1)C(=O)O [Example 678]	73%

Q: Given the compound CSCC[C@H](NC(=O)c1ccc(CNc2cccc(CCC(=O)O)c2)cc1-c1ccccc1)C(=O)O [Example 685] , write its reported % inhibition at 1 × 10^-5 M.
Ans: 55%

Q: Assign % inhibition at 1 × 10^-5 M to the following record: CSCC[C@H](NC(=O)c1ccc(CNc2ccc(O)cc2)cc1-c1ccccc1)C(=O)O [Example 689]
Ans: 73%

Q: Provide only the value of recorded % inhibition at 1 × 10^-5 M for CSCC[C@H](NC(=O)c1ccc(CNc2ccc(C3CCCCC3)cc2)cc1-c1ccccc1)C(=O)O [Example 699]
Ans: 74%

Q: Please report % inhibition at 1 × 10^-5 M for the following compound: CSCC[C@H](NC(=O)c1ccc(CNc2ccccc2N(C)C)cc1-c1ccccc1)C(=O)O [Example 672]
Ans: 48%

Q: Return the recorded % inhibition at 1 × 10^-5 M value; entry: CSCC[C@H](NC(=O)c1ccc(CNc2ccc(F)cc2)cc1-c1ccccc1)C(=O)O [Example 687]
Ans: 78%

Q: Quickly give me recorded % inhibition at 1 × 10^-5 M for CSCC[C@H](NC(=O)c1ccc(NC(=O)Cc2ccccc2[N+](=O)[O-])cc1-c1ccccc1)C(=O)O [Example 757]
Ans: 58%

Q: Please give measured % inhibition at 1 × 10^-5 M of the following entry: CSCC[C@H](NC(=O)c1ccc(CNc2nccs2)cc1-c1ccccc1)C(=O)O [Example 374]
Ans: 61%

Q: State, in one line, measured % inhibition at 1 × 10^-5 M of CSCC[C@H](NC(=O)c1ccc(CNc2cc(C)on2)cc1-c1ccccc1)C(=O)O [Example 372]
Ans: 69%

====

# inhibition at 0.01 µM per record follows
MEASURED_ON: Rat brain protein farnesyltransferase (Rattus norvegicus, UniProt Q02293+Q04631)
Construct: Rat brain protein farnesyltransferase activity is measured; from tissue; host or cells: rat brain
TEST_DETAILS: % inhibition of farnesylation, scintillation proximity assay with biotin-K Ras B fragment
Assay type: biochemical
MEASUREMENT_CONDITIONS: read-out: % inhibition at 0.01 μM (**)
Where a name gives a salt, the structure may show the parent alone.
Record the value in %, omitting the unit from your answer.

COMPOUND	ENDPOINT	SCALE_UNIT	NUMERIC_READOUT
CSCC[C@H](NC(=O)c1ccc(COCc2ccnnc2)cc1-c1ccccc1C)C(=O)O [Example 1221, lithium salt]	inhibition at 0.01 µM	%	82
CCCCOCC(CC1CCCCC1)OCc1ccc(C(=O)N[C@@H](CCSC)C(=O)O)c(-c2ccccc2C)c1 (stereo partly drawn) [Example 1308, Lithium Salt]	inhibition at 0.01 µM	%	91

Now take the following compound into account.
Q: Enter measured inhibition at 0.01 µM, system Rat brain protein farnesyltransferase (Rattus norvegicus, UniProt Q02293+Q04631), for the compound shown: CSCC[C@H](NC(=O)c1ccc(CO[C@H](COC(C)C)CC2CCCCC2)cc1-c1ccccc1C)C(=O)O [Example 1306, Lithium Salt]
Ans: 85
